These measurements were taken from a melting point compilation (Tetko et al.).

attribute measured: melting point

Qu. For the compound O=C(CCl)NC1CS(=O)(=O)CC1Cl (stereo not drawn) , what melting point is on record?
Ans. 181 to 190 °C

Next:
Qu. Would you mind telling me what melting point value was observed for CCC1(O)CCC(N)CC1 (stereo not drawn) ?
Ans. 79 to 81 °C

Qu. Data request, read-out melting point, for NC(Cc1cccc2cccnc12)=NO
Ans. 172 to 174 °C

Qu. Name the reported melting point value associated with the compound O=S(=O)(Cl)C1=Cc2ccccc2CC1
Ans. 59 to 61 °C

Qu. Any idea what melting point was measured for COc1ccnc(Cl)n1 ?
Ans. 57 to 58 °C

Qu. What does the data say about its melting point? Entry: CCOCCCNC(N)=S
Ans. 84 to 86 °C

Qu. Please look up its melting point: COc1ccc(N(C)S(=O)(=O)c2cccc(C(=O)O)c2)cc1
Ans. 172 to 174 °C

Qu. Any idea what melting point was measured for Cc1ccc(-n2c(C)ccc2C)c(C(=O)O)c1 ?
Ans. 157 to 159 °C

Qu. Would you mind telling me what melting point value was observed for N#CCCn1cc(C(=O)O)c(-c2cccc(Br)c2)n1 ?
Ans. 154 to 156 °C

Qu. Entry under review: COc1ccc2c(c1)CCC(=O)N2 . Reported melting point?
Ans. 141 to 143 °C

Qu. What measured melting point goes with Cc1cc(=O)oc2cc(OCCBr)ccc12 ?
Ans. 102 to 104 °C

Qu. May I ask what melting point has been recorded for Sc1nc(/C=C/c2ccccc2)n[nH]1 ?
Ans. 277 to 279 °C

Qu. Data request, read-out melting point, for Nc1nnc(-c2cccc(Br)c2)o1
Ans. 209 to 211 °C

Qu. Field request: melting point | item: CN(C(=O)OC(C)(C)C)c1ccc(C(=N)N)cc1
Ans. 142 to 144 °C

Qu. Fill in the blank: the reported melting point of O=C(O)CCNS(=O)(=O)c1ccc(F)cc1 is ____.
Ans. 123 to 127 °C

---

attribute measured: melting point

Examples from the recorded data:
Qu. Need melting point of Cc1ccc(I)c(O)c1 , thanks.
Ans. 62 to 64 °C

Qu. Which value of melting point has been reported for O=C(O)c1csc(Cc2ccccc2F)n1 in the records?
Ans. 154 to 156 °C

Qu. Field request: melting point | item: N#CCC(=O)c1cccc2c1OCCO2
Ans. 99 to 101 °C

Proceed to the following item.
Qu. Item under review: N#Cc1c(N)sc2c1CCCCCC2 . Reported melting point?
Ans. 104 to 106 °C

---

attribute measured: melting point

# example entries with known answers
Qu. I'd like to know its melting point. The compound in question is CC1CNc2ccccc2C(=O)N1 (configuration not stated)
Ans. 189 to 191 °C

Qu. Given CC(N)Cn1cnc2c(cnn2C)c1=O (configuration not stated) , state its recorded melting point.
Ans. 148 to 150 °C

Qu. Could you share which melting point value was measured for CS(=O)(=O)c1ccc2c(c1)NC(=O)CO2 ?
Ans. 229 to 231 °C

Qu. Need melting point, item CC(C)c1nnc(C(C)C)[nH]1
Ans. 147 to 149 °C

Next:
Qu. // returns reported melting point for input COc1ccc(-c2ccc(C=O)o2)c([N+](=O)[O-])c1
Ans. 107 to 109 °C

Qu. Sample CCCCn1c(=O)[nH]c(=O)c2c1nc(CCl)n2CC — what was its melting point?
Ans. 172 to 174 °C

Qu. Any idea what its melting point is? The compound is O=c1nc(S)[nH]nc1-c1cc(Cl)sc1Cl
Ans. 203 to 205 °C

Qu. May I ask what melting point has been recorded for Cc1nn(-c2ccccc2)c(N2CCCC2)c1C=O ?
Ans. 71 to 73 °C

Qu. Consider the compound shown here: O=C(CNCc1ccc(Cl)cc1)Nc1ccccc1F What is its recorded melting point?
Ans. 90 to 92 °C

Qu. Which value of melting point has been reported for O=C(O)CNC(=O)c1ccc(C(F)(F)F)cc1 in the records?
Ans. 154 to 156 °C

Qu. What value of melting point has been reported for the following compound? Cc1ncc(-c2ccccc2)cc1N
Ans. 139 to 141 °C

Qu. Quick one: melting point for N#CC(NC(=O)c1ccccc1)C1CC1 (configuration not stated) ?
Ans. 91 to 93 °C

Qu. # lookup: melting point of O=C(O)Cc1coc2cc(F)ccc12
Ans. 103 to 105 °C

Qu. Dear colleague, I am looking for the recorded melting point of the following compound: CN(C)c1ccc(C=C(C#N)C(=O)O)cc1
Ans. 224 to 226 °C

Qu. Returns the measured melting point for the input compound. Input: CC(CC(=O)O)c1ccc(F)cc1F (configuration not stated)
Ans. 66 to 68 °C

Qu. Quick check: melting point of CCOC(=O)c1c(CCCO)cnc2c(C#N)cnn12 ?
Ans. 94 to 96 °C

Qu. Any idea what melting point was measured for NC(=O)NC1CCCC1 ?
Ans. 192 to 194 °C

Qu. Data request, read-out melting point, for N#Cc1cc2c([nH]c1=O)CCCCC2
Ans. 253 to 255 °C

Qu. Which measured melting point value corresponds to Cc1nn(C2CCS(=O)(=O)C2)c(C)c1C=O (configuration not stated) ?
Ans. 122 to 124 °C

---

melting point listing for selected molecules.

Examples with answers:
Qu. Given the entry O=C(O)CCc1nncn1-c1ccccc1 , report its measured melting point.
Ans. 202 to 204 °C

Qu. Quick check: melting point of COc1ccc2[nH]c3c(c2c1)CCCC3 ?
Ans. 59 to 61 °C

Qu. Which value of melting point has been reported for CCOc1ccc(C(C)=O)cc1CN1CCCCC1 in the records?
Ans. 33 to 37 °C

Qu. Any idea what its melting point is? The molecule is CCn1c(C)cc(C(=O)O)c1C
Ans. < 17 °C

Qu. Tell me the measured melting point of O=C(O)c1cccc(NC(=O)c2ccco2)c1 , please.
Ans. 224 to 226 °C

***
Qu. Looking for the measured melting point of CC(C)(C)OC(=O)NCC1CCCC1N (stereo unspecified) , can you help?
Ans. 43 to 45 °C

---

As shown below, each of these compounds has a reported melting point value.

Worked set:
Qu. Sample Nc1ncc(-c2ccccc2)s1 — what was its melting point?
Ans. 198 to 200 °C

Qu. // query melting point value for entry CC(NC(=O)OCC(F)(F)F)c1nncn1C (stereo not given)
Ans. 103 to 105 °C

Qu. Would you kindly share the measured melting point for O=S(=O)(CCCl)c1ccc(Br)cc1 ?
Ans. 110 to 112 °C

Qu. # lookup: melting point of O=C(Cc1nc(CCl)cs1)Nc1ccccc1
Ans. 115 to 117 °C

Qu. Fill in: melting point of CC1(c2ccccc2)NC(=O)N(CC(=O)O)C1=O (stereo not given) is ___
Ans. 170 to 172 °C

***
Qu. Report melting point for Clc1cc(N2CCCC2)ncn1 please.
Ans. 93 to 95 °C

---

Entries and their melting point values follow.

Qu. Tell me the measured melting point of CCc1ccccc1NC(=O)CC(C)=O , please.
Ans. 89 to 91 °C

Qu. # melting point lookup, item C/C(=N\O)c1ccc(-c2cccc(Br)c2)s1
Ans. 168 to 170 °C

Qu. Would you mind telling me what melting point value was observed for CC(C)(C)c1ccc2c(c1)C(=O)C(=O)N2 ?
Ans. 145 to 147 °C

Qu. Consider the molecule Cc1nncn1-c1cccc(N)c1 and give its measured melting point.
Ans. 109 to 111 °C

Qu. What value of melting point has been recorded for this entry: FC(F)(F)c1nc2c([nH]1)CCCC2
Ans. 229 to 231 °C

Continuing:
Qu. Entry under review: Nc1c(Cl)ncnc1NC1CC1 . Reported melting point?
Ans. 139 to 141 °C

Qu. I am curious: what melting point value has been reported for Cn1c(=O)cc(C(=O)O)c2ccccc21 ?
Ans. 250 to 252 °C

Qu. Give its melting point value. Item: CC(Cl)C(=O)NCCc1ccc(S(N)(=O)=O)cc1 (configuration not stated)
Ans. 159 to 161 °C

Qu. // lookup melting point for N#Cc1ccc(NC(=O)CC2CCCC2)cc1
Ans. 145 to 147 °C

Qu. Would you mind telling me what melting point value was observed for c1ccc2[nH]c(C3CC3)nc2c1 ?
Ans. 232 to 234 °C

Qu. # get_value(readout='melting point', item= COc1ccc(NS(=O)(=O)c2ccc(N)cc2)c(OC)c1 )
Ans. 119 to 121 °C

Qu. Report melting point for CCN(CC)S(=O)(=O)c1ccc(C(=O)NCC(=O)O)cc1 please.
Ans. 143 to 145 °C

---

attribute measured: melting point

Consider the reported melting point for these compounds:
Qu. Looking for the measured melting point of OCc1cccc(F)c1Cl , can you help?
Ans. 34 to 36 °C

Qu. Need melting point, item O=C(Nc1ccccc1)C(Cl)c1ccccc1 (centres undefined)
Ans. 150 to 152 °C

Qu. May I ask what melting point has been recorded for Cc1cc(C)cc(C=CC(=O)O)c1 ?
Ans. 135 to 137 °C

Others:
Qu. May I ask what melting point has been recorded for CC(O)c1ccc(NC(=O)c2ccccc2)cc1 (centres undefined) ?
Ans. 164 to 166 °C
